- procedureSummary: Solid-state stability (HPLC purity and XRPD crystal form on storage)
- Format: physicochemical
- conditionSummary: 40°C /75%RH/open, 1 week, HPLC
Counter-ions that a name gives are not always drawn.
assayEndpoint: Purity (area %)

compound	valueReported
CNCc1ccc(NS(=O)(=O)c2ccsc2)c(-c2ccco2)c1 [malate crystal form F]	98.74
CNCc1ccc(NS(=O)(=O)c2ccsc2)c(-c2ccco2)c1 [succinate crystal form E]	98.92
CNCc1ccc(NS(=O)(=O)c2ccsc2)c(-c2ccco2)c1 [Phosphate crystal form G]	98.11
CNCc1ccc(NS(=O)(=O)c2ccsc2)c(-c2ccco2)c1 [benzene sulfonate crystal form J]	98.87
CNCc1ccc(NS(=O)(=O)c2ccsc2)c(-c2ccco2)c1 [fumarate crystal form B]	98.4
CNCc1ccc(NS(=O)(=O)c2ccsc2)c(-c2ccco2)c1 [Malonate crystal form K]	98.64
CNCc1ccc(NS(=O)(=O)c2ccsc2)c(-c2ccco2)c1 [hydrochloride crystal form C]	99.02
CNCc1ccc(NS(=O)(=O)c2ccsc2)c(-c2ccco2)c1 [Pyroglutamate crystal form I]	98.61
CNCc1ccc(NS(=O)(=O)c2ccsc2)c(-c2ccco2)c1 [free crystal form A]	98.19
CNCc1ccc(NS(=O)(=O)c2ccsc2)c(-c2ccco2)c1 [Tartrate crystal form H]	98.7
CNCc1ccc(NS(=O)(=O)c2ccsc2)c(-c2ccco2)c1 [sulfate crystal form D]	98.76
